Below, each entry is listed with its recorded protein stability index.
B1: YPEL3 (parent)
chain: SKPKTFQAYLDDCHRRYSCAHCRA

Variants of: B1
testMethodNotes: protein stability index of a GFP-peptide fusion (GPS, HEK-293T) (PSI 1-6); higher = more stable;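 further: lentivirally expressed fusions sorted by FACS into six bins by GFP to DsRed ratio, PSI derived from sequencing read proportions per bin multiplied by bin number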
testContext: c terminus: a fixed tail appended
Format: numeric value only, no unit, no commentary.

| sequenceCode | valueReported |
| --- | --- |
| SKPKTFQAYLDDCDRRYSCAHCRA | 1.67 |
| SKPKTFQAYLDDCHRRYSCTHCRA | 2.29 |
| SKPKTFYAYLDDCHRRYSCAHCRA | 1.85 |
| NKPKTFQAYLDDCHRRYSCAHCRA | 2.04 |
| SKPKTFQAYLDDCHRRYWCAHCRA | 1.52 |
| SKPTTFQAYLDDCHRRYSCAHCRA | 1.74 |

# protein stability index (variant: SKPKTFQAYLDDCHRRYSCARCRA ) is 3.32

Sample SKPKTFQAYLDDCHRRYSCAHLRA ; protein stability index observed: 2.37

Consider SKPKTFQAYLDDCHRRYSCAHMRA . Its measured protein stability index is 1.98

Entry SKFKTFQAYLDDCHRRYSCAHCRA ; protein stability index = 3.23

protein stability index reported for this variant SKPKKFQAYLDDCHRRYSCAHCRA : 2.25

Form field protein stability index, entry SKPKTFQAYLDDVHRRYSCAHCRA : 2.54

Summary for this variant, SKPKTFQAYLDDCHRCYSCAHCRA : protein stability index is 2.4

Looking up SKPKTFQAQLDDCHRRYSCAHCRA , I see its protein stability index listed as 2.45
